target: ALK2 (Homo sapiens (Human)); test: ALK2 Cellular Assay (phospho SMAD1 HTRF, BMP-7 stimulated HeLa cells); format: cell-based; details: HeLa cells, 200 ng/ml BMP-7, Phospho SMAD1 (S463/S465) HTRF; read-out: ALK2 Cellular Assay PSMAD
Sequence (Q04771 21-509): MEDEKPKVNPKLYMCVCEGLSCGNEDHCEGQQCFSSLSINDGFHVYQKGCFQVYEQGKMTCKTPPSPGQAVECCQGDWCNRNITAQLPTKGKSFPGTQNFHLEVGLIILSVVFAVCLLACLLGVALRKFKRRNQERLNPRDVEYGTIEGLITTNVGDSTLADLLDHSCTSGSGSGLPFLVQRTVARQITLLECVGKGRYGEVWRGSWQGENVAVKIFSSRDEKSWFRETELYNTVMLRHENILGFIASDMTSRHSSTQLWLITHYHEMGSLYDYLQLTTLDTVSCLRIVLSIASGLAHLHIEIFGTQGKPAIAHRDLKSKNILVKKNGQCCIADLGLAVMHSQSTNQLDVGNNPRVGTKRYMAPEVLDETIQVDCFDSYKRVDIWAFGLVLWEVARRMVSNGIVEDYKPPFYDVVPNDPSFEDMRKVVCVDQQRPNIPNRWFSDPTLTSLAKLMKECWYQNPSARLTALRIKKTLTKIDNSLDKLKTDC
pIC50: −log10 of the molar value.
property_label: pIC50

1) C[C@@H]1CN(c2ccc(-c3n[nH]c4cnc(N5[C@H](C)COC[C@@H]5C)nc34)cn2)CCN1 = 6.30 to 7.00
2) COC(=O)N1C[C@@H](C)N(c2ncc3[nH]nc(-c4ccc(N5CCN(C)CC5)c(F)c4)c3n2)[C@@H](C)C1 = 6.30 to 7.00
3) C[C@@H]1CN(c2ccc(-c3n[nH]c4cnc(N5CCc6c(ncn6C)C5)nc34)cn2)CCN1 = 6.30 to 7.00
4) COC(=O)N1C[C@@H](C)N(c2ncc3[nH]nc(-c4ccc(N5CCN[C@H](C)C5)nc4)c3n2)[C@@H](C)C1 = > 7.00

Reference source: patent US11111247B2
